Target: bovine serum albumin BSA (Bos taurus)
Construct: purchased Sigma Aldrich
Sequence (P02769 25-607): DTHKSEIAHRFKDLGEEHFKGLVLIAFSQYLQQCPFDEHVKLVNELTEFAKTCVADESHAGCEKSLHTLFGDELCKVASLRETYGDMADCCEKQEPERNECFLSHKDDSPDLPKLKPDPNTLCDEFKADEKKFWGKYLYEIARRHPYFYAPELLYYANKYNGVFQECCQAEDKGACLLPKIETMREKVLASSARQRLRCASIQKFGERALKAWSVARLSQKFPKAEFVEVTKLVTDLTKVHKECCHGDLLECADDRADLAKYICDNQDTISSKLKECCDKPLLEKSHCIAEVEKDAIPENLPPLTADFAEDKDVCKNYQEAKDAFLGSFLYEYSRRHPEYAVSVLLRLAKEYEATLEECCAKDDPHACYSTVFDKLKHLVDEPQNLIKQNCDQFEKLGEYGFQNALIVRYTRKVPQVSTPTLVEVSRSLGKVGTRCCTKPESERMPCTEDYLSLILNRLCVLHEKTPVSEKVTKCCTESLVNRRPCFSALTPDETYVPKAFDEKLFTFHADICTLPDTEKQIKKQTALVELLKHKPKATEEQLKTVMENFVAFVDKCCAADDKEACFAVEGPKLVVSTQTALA
Assay: RP TLC on silanized RP-2 plates impregnated with bovine serum albumin
Assay type: in vitro ADME
Conditions: Rf value from RP plate impregnated with 2 mg/mL BSA solution; mobile phase pH 7.4
Quantity measured: RP

# annotated cases, reported RP shown
1. CCCCN1CCCCC1C(=O)Nc1c(C)cccc1C (stereo not shown) [bupivacaine]; 0.75
2. CN(C)CCC=C1c2ccccc2COc2ccccc21 [doxepin]; 0.54
3. CC(N)C12CC3CC(CC(C3)C1)C2 (stereo not shown) [rimantadine]; 0.95

Prompt: # RP lookup, item CCC1(c2ccccc2)C(=O)NCNC1=O [primidone]
Completion: 0.97

Prompt: For CCOC(=O)C1=C(C)NC(C)=C(C(=O)OC)C1c1cccc([N+](=O)[O-])c1 (stereo not shown) [nitrendipine] then?
Completion: 0.86

Prompt: Also CC[C@@H](C(N)=O)N1CCCC1=O [levetiracetam] ?
Completion: 0.92

Prompt: Okay, and CCC(C)n1ncn(-c2ccc(N3CCN(c4ccc(OCC5COC(Cn6cncn6)(c6ccc(Cl)cc6Cl)O5)cc4)CC3)cc2)c1=O (stereo not shown) [itraconazole] ?
Completion: 0.84
